Listed here: items and their measured IC50.
# system-name: human recombinant COX-2 (Homo sapiens, UniProt P35354)
# Construct: purchased
# Sequence (P35354 18-604): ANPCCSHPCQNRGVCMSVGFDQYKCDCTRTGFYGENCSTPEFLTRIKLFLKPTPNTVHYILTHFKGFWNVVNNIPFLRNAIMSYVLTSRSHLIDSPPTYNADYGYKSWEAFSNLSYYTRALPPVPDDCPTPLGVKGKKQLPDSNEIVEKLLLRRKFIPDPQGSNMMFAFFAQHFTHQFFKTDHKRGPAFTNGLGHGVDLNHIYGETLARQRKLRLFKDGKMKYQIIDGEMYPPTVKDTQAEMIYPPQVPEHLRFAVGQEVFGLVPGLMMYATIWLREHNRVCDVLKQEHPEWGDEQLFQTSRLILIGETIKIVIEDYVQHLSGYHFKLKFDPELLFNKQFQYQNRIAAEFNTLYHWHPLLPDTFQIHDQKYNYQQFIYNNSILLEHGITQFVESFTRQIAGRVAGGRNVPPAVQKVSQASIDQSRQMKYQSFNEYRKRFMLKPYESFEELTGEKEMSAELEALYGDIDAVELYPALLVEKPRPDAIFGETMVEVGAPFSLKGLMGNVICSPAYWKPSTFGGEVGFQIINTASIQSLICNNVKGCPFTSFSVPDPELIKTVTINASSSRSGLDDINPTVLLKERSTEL
# measurement-notes: COX-2 inhibitory activity, colourimetric COX inhibitor screening assay kit
# Format: biochemical
# test-context: human recombinant COX-2
Please state the value followed by its unit.

{"compound": "CC(C)[C@H]1CC[C@H]2[C@@]1(C)CC[C@@]1(C)[C@@H]3CC[C@H]4C(C)(C)[C@@H](O)CC[C@]4(C)C3=CC[C@]21C [Isoarborinol (N1), isoarborinol]", "IC50": "51.8 µM"}

Now look at this entry.
Request: Name the recorded IC50 for COc1cc(-c2coc3cc(O)c(OC)c(O)c3c2=O)cc(O)c1OC [Irigenin (P3)] .
Result: 10.8 µM

###

# system-name: human recombinant COX-2 (Homo sapiens, UniProt P35354)
# Construct: purchased
# Sequence (P35354 18-604): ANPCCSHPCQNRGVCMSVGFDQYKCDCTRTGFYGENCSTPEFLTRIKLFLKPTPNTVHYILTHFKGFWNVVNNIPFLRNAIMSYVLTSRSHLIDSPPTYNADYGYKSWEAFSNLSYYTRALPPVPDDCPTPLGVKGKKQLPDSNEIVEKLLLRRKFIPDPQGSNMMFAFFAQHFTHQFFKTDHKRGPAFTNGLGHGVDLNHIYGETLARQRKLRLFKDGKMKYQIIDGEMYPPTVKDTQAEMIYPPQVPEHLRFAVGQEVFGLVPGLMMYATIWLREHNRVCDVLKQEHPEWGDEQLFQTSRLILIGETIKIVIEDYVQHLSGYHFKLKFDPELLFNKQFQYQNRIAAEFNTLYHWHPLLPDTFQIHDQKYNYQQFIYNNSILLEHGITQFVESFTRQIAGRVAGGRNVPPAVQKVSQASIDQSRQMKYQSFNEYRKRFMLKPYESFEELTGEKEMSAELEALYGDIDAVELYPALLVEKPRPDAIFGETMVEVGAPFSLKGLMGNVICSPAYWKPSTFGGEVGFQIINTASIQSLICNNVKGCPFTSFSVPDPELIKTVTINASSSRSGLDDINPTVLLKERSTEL
# measurement-notes: COX-2 inhibitory activity, colourimetric COX inhibitor screening assay kit
# Format: biochemical
# test-context: selectivity index calculated as IC50 (COX-1)/(COX-2)
value-kind: SI (COX-1/COX-2)
Answer with a bare number; do not write a unit.

{"compound": "CC[C@H](/C=C/[C@@H](C)[C@H]1CC[C@H]2[C@@H]3CC=C4C[C@@H](O)CC[C@]4(C)[C@H]3CC[C@]12C)C(C)C", "reported-measurement": 1.33}
{"compound": "COc1cc(-c2coc3cc(O)c(OC)c(O)c3c2=O)cc(O)c1OC", "reported-measurement": 3.26}

Request: For the compound shown here, O=c1cc(-c2ccc(O)c(O)c2)oc2c([C@@H]3O[C@H](CO)[C@@H](O)[C@H](O)[C@H]3O)c(O)cc(O)c12 [Orientin (P2), luteolin-8-C-β-glucopyranoside] , give the reported SI (COX-1/COX-2).
Result: 1.58

Request: Let us now turn to COc1c(O)cc2occ(-c3ccc(O)cc3)c(=O)c2c1O [Tectorigenin (P4), 4′,5,7-trihydroxy-6-methoxyisoflavone]
Result: 2.16

Request: Subsequent entry: "CC(C)[C@H]1CC[C@H]2[C@@]1(C)CC[C@@]1(C)[C@@H]3CC[C@H]4C(C)(C)[C@@H](O)CC[C@]4(C)C3=CC[C@]21C"
Result: 1.42

###

# system-name: Human inosine-5′-monophosphate dehydrogenase (hIMPDH2) (Homo sapiens)
value-kind: pIC50
pIC50 is a log-scale quantity: -log10 of the concentration expressed in molar.

Request: Any idea what its pIC50 is? The molecule is CC[C@H]1OC(=O)[C@H](C)[C@@H](O[C@H]2C[C@@](C)(OC)[C@@H](O)[C@H](C)O2)[C@H](C)[C@@H](O[C@@H]2O[C@H](C)C[C@H](N(C)C)[C@H]2O)[C@](C)(OC)C[C@@H](C)C(=O)[C@H](C)[C@@H](O)[C@]1(C)O [Clarithromycin, clarithromycin, reference compound]
Result: 5.51

###

# system-name: human recombinant COX-2 (Homo sapiens, UniProt P35354)
# Construct: purchased
# measurement-notes: COX-2 inhibitory activity, colourimetric COX inhibitor screening assay kit
# Assay type: biochemical
# test-context: human recombinant COX-2; ND = not detected
value-kind: IC50
Remember to put the unit after the number in your answer.

Request: Which value of IC50 has been reported for COc1c(O)cc2occ(-c3ccc(O)cc3)c(=O)c2c1O [Tectorigenin (P4), 4′,5,7-trihydroxy-6-methoxyisoflavone] in the records?
Result: 189 µM

###

# system-name: ovine COX-1 (Ovis aries)
# Construct: purchased
# measurement-notes: COX-1 inhibitory activity, colourimetric COX inhibitor screening assay kit
# Assay type: biochemical
# Description: The inhibitory COX activity was assayed colourimetrically by examining the inhibition of the ovine COX-1 and human recombinant COX-2 enzymes as described by George et al.[38], using a COX inhibitor screening assay kit. […] Reaction mixture containing assay buffer and heme acted as the blank and a mixture with either COX-1 or COX-2 assay buffer and heme acted as the 100% initial activity (IA). […] The absorbances of oxidized TMPD (blue colour) were read in ELISA plate reader at 590 nm. […]
value-kind: IC50

Request: For the compound COc1c(O)cc2occ(-c3ccc(O)cc3)c(=O)c2c1O [Tectorigenin (P4), 4′,5,7-trihydroxy-6-methoxyisoflavone] , what IC50 is on record?
Result: 407 µM

###

# system-name: ovine COX-1 (Ovis aries, UniProt P05979)
# Construct: purchased
# Sequence (P05979 25-600): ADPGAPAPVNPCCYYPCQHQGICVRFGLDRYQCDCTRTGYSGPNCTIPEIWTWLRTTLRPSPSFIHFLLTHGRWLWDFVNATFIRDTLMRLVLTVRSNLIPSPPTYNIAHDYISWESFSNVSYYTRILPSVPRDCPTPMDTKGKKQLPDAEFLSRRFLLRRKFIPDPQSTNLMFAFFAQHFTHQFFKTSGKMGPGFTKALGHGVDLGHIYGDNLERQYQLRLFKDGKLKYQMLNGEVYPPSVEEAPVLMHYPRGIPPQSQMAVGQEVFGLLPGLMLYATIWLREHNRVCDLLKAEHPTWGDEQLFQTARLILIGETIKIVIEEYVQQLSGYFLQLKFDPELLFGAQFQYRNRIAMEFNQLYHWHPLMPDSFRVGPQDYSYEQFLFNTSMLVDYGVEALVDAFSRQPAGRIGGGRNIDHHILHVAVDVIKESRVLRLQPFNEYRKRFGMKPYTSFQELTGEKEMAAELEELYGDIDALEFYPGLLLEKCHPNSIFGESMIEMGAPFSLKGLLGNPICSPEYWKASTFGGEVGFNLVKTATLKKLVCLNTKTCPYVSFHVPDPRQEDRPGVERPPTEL
# measurement-notes: COX-1 inhibitory activity, colourimetric COX inhibitor screening assay kit
# Assay type: biochemical
# test-context: ovine COX-1; read-out: IC50 (COX-1)
value-kind: IC50 (µM)
Unit µM implied. Number only.

{"smiles-data": "COc1cc(-c2coc3cc(O)c(OC)c(O)c3c2=O)cc(O)c1OC", "IC50 [µM]": 35.2}

Proceeding to the next molecule to report its IC50.
Request: Param readout= IC50; system= ovine COX-1 (Ovis aries, UniProt P05979); entry= "CC(C)[C@H]1CC[C@H]2[C@@]1(C)CC[C@@]1(C)[C@@H]3CC[C@H]4C(C)(C)[C@@H](O)CC[C@]4(C)C3=CC[C@]21C" ; returns value.
Result: 73.3
